Source of measurements: the supplement of paper PMC12764529

protocol.summary: folding stability dG unfold from trypsin proteolysis; higher = more stable
Decision: folding stability dG unfold >= 0.7 kcal/mol yields YES, all other cases yield NO.

Some entries whose results are on file:
SNELAKEIADELKKQGYEVKDVEVQYSPDDGMVEIEARIRHPDDGRQYRIDIHVNPDDGKITQVKIEPRPSA [r9_814_TrROS] | YES
SAGGSAGGKPEVKITLVIEVETEEELKALAEELAALLGAEVEVRVERREDGRLLVTVTITVPAESAGGSAGG [r6_719_TrROS_Hall] | YES
SAGGSAGGSAGGIGEGTPIERLIEGKPIPFYVDESTGKAYYTLPEDKKIETTIEDPEKVSAGGSAGGSAGGS [r10_1185_TrMRF] | NO
SAGGSAGGSKITVERNEDGELFVRITFKDGKTITIKAKSVEELKEKLKELGFDVKVEVVERKPSAGGSAGGS [r20_124_TrROS_Hall] | YES
SAGPPVLALFTGSPEDVQELLDRLPPDFEVEVGRLPDLYVARFPPDVPPGTVLLPGADGRPAVVEVVEASAG [r5_123_TrMRF] | NO

Lab note: next sequence to report on.
Query :: Answer whether folding stability dG unfold of SAGGGANIEGVEIYRIPDLDKYLVVVPSPAPEGAEITITVRLPNGPFTKTFVAKYRPLPGNRHVFVGSAGGS [r8_195_TrMRF] is greater than or equal to 0.7 kcal/mol.
Result :: YES

---

protocol.summary: folding stability dG unfold from chymotrypsin proteolysis; higher = more stable
readout.name: folding stability dG unfold
// unit must come after the numeric part

SAGGSAGGSAGGGMTVEESVFLDPSGTRITVTTRVFDDGTVVTETEVTPLPPTPNPALASAGGSAGGSAGGS [r10_878_JUSTAS] | 1.08 kcal/mol
SSSPSGLSVTSSTVTKVETDPGPGNVTTVTVTTLNNSVLIIPLPGKPLVIPTNTTVETTYTVPPDDPSPASA [r9_531_JUSTAS] | 0.87 kcal/mol
SAGGSAMTLEDLKDEFVVITLPDGTVVKAKVEEVDTKGPVLTILVGGKPILIPADAPVKIEIEPPKSAGGSA [r15_355_JUSTAS] | 1.36 kcal/mol

In plain terms, SAGGSAFEEVKKKYPNAKWEKIGDEGDTAVYRLTFPGGEKILITVPTLPETDEPVVEVTYVPKGEESAGGSA [r15_547_JUSTAS] has a documented folding stability dG unfold of 2.84 kcal/mol

In plain terms, SAGGSAGGSKTIKIEIEKMSEEELKNLTAEEIAKLLGVKEVKVTKEKIEITLTEEELKKLEKKSAGGSAGGS [r12_178_TrROS_Hall] has a documented folding stability dG unfold of 1.24 kcal/mol

In plain terms, SAGKIKIEVVKREDGYVVVKIRFEDTGEELVITVPKEDEEKVKELAEELAEKLKEEGIEVEVEVRELPPSAG [r5_815_TrROS_Hall] has a documented folding stability dG unfold of 3.09 kcal/mol

In plain terms, SAGGSAGGSAGGVDPTPDGILRVRVVIKDPNGDVFSEKEVEMTPEELEALKKAGYVILESAGGSAGGSAGGS [r10_749_JUSTAS] has a documented folding stability dG unfold of 2.02 kcal/mol

---

protocol.summary: folding stability dG unfold from chymotrypsin proteolysis; higher = more stable
readout.name: folding stability dG unfold (kcal/mol)
Provide the reading as a plain figure in kcal/mol.

SAGGSAGGDRIKIRFPDYRYEIEIPPGIESITTIQFHKDGWFTLTIPGNGQQIKIPIPPPDDDPSAGGSAGG [r6_370_TrROS] | 1.73

In plain terms, SAGGSAEPRPVVVVFEGTEEEVEELVQKVRDEGFAIDFKVEPLPDPRYYRATVIVRDPDGSWTAKLSAGGSA [r15_177_TrMRF] has a documented folding stability dG unfold of 2.11

In plain terms, SAGGSAGGSAGGPNNKPKPKQVTFDIEIEDIEIDPEHGLISIEIRFPDGGKEITARIPISAGGSAGGSAGGS [r10_427_TrROS] has a documented folding stability dG unfold of 0.27

In plain terms, SAGGSAKPKIEIEVEKLEGVKEGDTIEVKIKFPNGFIIKIEAKVKRVDGKLVIEVTKVEVIPKEDLSAGGSA [r15_636_TrROS_Hall] has a documented folding stability dG unfold of 3.17

---

protocol.summary: folding stability dG unfold from chymotrypsin proteolysis; higher = more stable
readout.name: folding stability dG unfold (kcal/mol)
Provide the reading as a plain figure in kcal/mol.

SEITIYNKGKPPPEELLEALKKAPGFPPEDLRKNTKVEPNKDGPQITIPPEQAEQMSKRNPRIMEAIRELSA [r9_160_TrROS] | 1.75
SAGGKKNEKKPIEIDGVFFNPETGKLVKIGPAKIIVPKNAKIELEAEVFDPVTGEVKKVKFKFELPAGSAGG [r13_206_TrMRF] | 0.816
SAGGPRVEPLPLRVTYEDGVPPREVTVPLLAVTALDPETGEPVTFVNPGSLEVLAALLPPSVVSFDFSAGGS [r16_522_TrMRF] | 0.703
SAGGSKKKIEKIEIEIEIKNKDGKTYKIKAEIEKVELKDGKVAKIRLEIYNENGEKIAEFEFEIKISAGGSA [r2_215_TrROS_Hall] | 4.03
SAGDRIRITMPFDDLRKIMDEIGYPPEQMTAEEFADRLAEHFPGVKVDIEMDREDGYFTVEIELPPGMKSAG [r5_264_TrROS] | 1.43
SAGGSAGGSAGMTVPTSVEVSPDGTVRVRQLRWVRHGDGWRPFTFTVTLPISDDALKALKSAGGSAGGSAGG [r17_415_TrMRF] | 1.14
SAGGSAGGSAGGMPPRLVEIPIFVPPTDPARAEALAEELREELGAEEVVVRIVLAPPGLGSAGGSAGGSAGG [r7_632_JUSTAS] | 0.982
SAGGSVTLPPEEARAYAEAHPDRDLVLSMRPDDSTVTLELSVDPAAPGALSVRRREVFDPAGNATVVDSAGG [r13_481_JUSTAS] | 0.308
SAGGMKIKIEITEIKKEGDTVYIKVKITITLPNGKVIKIEMTLRYNKETGKWEIVKIEKIEIFPLPESAGGS [r16_729_TrROS_Hall] | 5.3
SAGGSAGGSAGEVEIEITKVTENEDGSETLEMTIRDKDTGKTYKLTFNKDNGILTLEEEPSAGGSAGGSAGG [r11_991_TrROS_Hall] | 3.05

In plain terms, SAGGSAGGWIRVDKVEPNPNDDMATVSVEMEDPGDGKKKKFNMTMPSDNPELIDKLPPGDWIEFSAGGSAGG [r6_979_TrROS] has a documented folding stability dG unfold of 0.215

In plain terms, SAGTVRLEVTVVIKLTKEQIENLPKDVKLEDGAEIEEKDDYLVIKRTIELPPPVVTDKDGKKLPLEELSAGG [r19_148_TrROS_Hall] has a documented folding stability dG unfold of 1.4

In plain terms, SAGGSAGGSAGGGMSSVSLVKTSTITVGNGTVKLETLSYPDSSFVRTTLPNGKDVVEPLPSAGGSAGGSAGG [r7_655_JUSTAS] has a documented folding stability dG unfold of 0.105

In plain terms, SAGGGSTTTYSIPEGPLTLEVTTVTVGDGTVKKTVVTTPEGKRTEIPPSNPITIPPNWTVTSSVTLTSAGGS [r16_669_JUSTAS] has a documented folding stability dG unfold of 0.0533

---

protocol.summary: folding stability dG unfold (combined trypsin and chymotrypsin); higher = more stable
readout.name: folding stability dG unfold (kcal/mol)
Provide the reading as a plain figure in kcal/mol.

The cases that follow already have their folding stability dG unfold on record.
SAGITIIIRGPDAKEAAEDIAKELLKNGFKRPITVHVLDPDGKPWYRIKIQFDPKNPGKIKVKVEPYDSAGG [r19_85_TrROS] | 3.65
SAGGSAGGSAGGGMTTTKTEVSFSPAGGLVTTKSTERLPGTGELKEVTSVTPLASSGTTSAGGSAGGSAGGS [r10_296_JUSTAS] | 0.622
SAGGSAGGSAGAPTVKLTFTVTRTETKTETLPDGTTKTETKTETRTVTLTLAPGETITVTSAGGSAGGSAGG [r11_174_TrROS_Hall] | 3.98

Kindly review the next sequence as well.
In plain terms, SMSRPVEVEFELPLEGEGPVRLRATLVVDPESGVVEIPVRARFPEREEDVDLPPELLERLARRVLEELGGSA [r9_1136_TrMRF] has a documented folding stability dG unfold of 1.1

---

Listing: folding stability dG unfold of selected sequences
protocol.summary: folding stability dG unfold from chymotrypsin proteolysis; higher = more stable
Provide the reading as a plain figure in kcal/mol.

The cases that follow already have their folding stability dG unfold on record.
SAGGSSVTTTVSEETLPDGLRLLTTTTTTTTVPGKPDLRITTVTTTALDPVTGETTAVGTSTTVVAPSAGGS [r8_65_JUSTAS] | 0.796
SAGGSAGGSAGKLKVEIEERNGKLVLKVKLELEPEPEPVEVEKKVEVKTETKMSLEELKKSAGGSAGGSAGG [r17_51_TrROS_Hall] | 0.952
SAGGSIPLSDIKDIEIHPWRHPNNNYPMYRIRIDNGRDMVIFPGAIFEFDPDDGKIEEVKPMPFGDSAGGSA [r2_374_TrROS] | 0.222
SAMKIIKINGKEVLLVKNENGEILIFVKNKKTNKYYLVKIEIKDGKIKIVEVKPIKTYSLEELLKEELLSAG [r14_384_TrROS_Hall] | 3.45
SAGGSAGGSAKTVEIPLKDLKPDKDGKYNYDEIQDQIKEKFPPNGIDKVDIDTPRQIWDQFRSAGGSAGGSA [r18_72_TrROS] | 0.157

In plain terms, SAGGSAGGSATLTVEVLEEVVEPVPDPSLTPVRLLVRDPANGELREAVVIRDPRRGALRLESAGGSAGGSAG [r3_1_JUSTAS] has a documented folding stability dG unfold of 0.0495

In plain terms, SDPGHKFKMEIVREIYLPGQIRIFVHKMEHPNGNPWVNVMVRNPDGQMEPIAMVPSDDPDAKDEALKLIKSA [r9_1069_TrROS] has a documented folding stability dG unfold of 0.506
